system: 349418-098-R-PDC complex spheroid viability; experiment: Anticancer human tumor 349418-098-R-PDC patient-derived lung adenocarcinoma cell line growth inhibition [RAS]; conditions: curve of first compound; second compound 3.16 µM;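 note: spheroids exposed to compound for seven days before viability readout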
endpoint: IC50 (nM)
Give the number; nM is assumed, so skip it.

Item: CC1(O)CCCC1n1c(=O)c(C(F)F)cc2cnc(NC3CCN(S(C)(=O)=O)CC3)nc21 (stereo unspecified) + C#Cc1c(F)ccc2cc(O)cc(-c3ncc4c(N5CC6CCC(C5)N6)nc(OCC56CCCN5CC(F)C6)nc4c3F)c12 | IC50: 79.3

In plain terms, C[C@@H](NC(=O)c1ncnc(N)c1Cl)c1ncc(C(=O)Nc2cc(C(F)(F)F)c(Cl)cn2)s1 + C#Cc1c(F)ccc2cc(O)cc(-c3ncc4c(N5CC6CCC(C5)N6)nc(OCC56CCCN5CC(F)C6)nc4c3F)c12 has a documented IC50 of 2940

IC50 reported for this compound CCc1c2c(nc3ccc(O)cc13)-c1cc3c(c(=O)n1C2)COC(=O)[C@]3(O)CC + C#Cc1c(F)ccc2cc(O)cc(-c3ncc4c(N5CC6CCC(C5)N6)nc(OCC56CCCN5CC(F)C6)nc4c3F)c12 : 1.75

Value of IC50 reported for the compound CCC(CC)c1cc(NC2CCC(N)C2)n2nccc2n1 (stereo unspecified) + C#Cc1c(F)ccc2cc(O)cc(-c3ncc4c(N5CC6CCC(C5)N6)nc(OCC56CCCN5CC(F)C6)nc4c3F)c12 is 714

Numbers sourced from PubChem BioAssay AID2060904.
